Test system: CCRIS mutagenicity, Ames/micronucleus/aberration tests
Assay Procedure: CCRIS mutagenicity studies
Details: Test System: E. COLI; Strain/Indicator: WP2 UVRA; Metabolic Activation: NONE; Method: PREINCUBATION
Calls of active or inactive are those of the source. The rule behind the calls is not given here.
Respond with a class label; see active, inactive

Look over these answered cases.
1) C=O | active
2) CC(C)Br | inactive
3) C=C1/C(=C\C=C2/CCC[C@]3(C)[C@@H]([C@H](C)/C=C/[C@@H](O)C4CC4)CC[C@@H]23)C[C@@H](O)C[C@@H]1O | inactive
4) O=C1OC(O)C(C(Cl)Cl)=C1Cl (configuration not stated) | active

*Q* What did the test return for `COS(C)(=O)=O` ?
*A* active

*Q* Recorded call for `CCCCCCCCCc1ccc(O)cc1` ?
*A* inactive

*Q* # fetch the recorded call for `CC1(C)COC1=O` here
*A* active
